molecular target: TbAS-A (Trypanosoma brucei); construct: full ORF in pET28a(+), 6-His-tagged, expressed in E. coli BL21DE3, Ni purified; predicted dimer (homology model); experiment: ninhydrin asparagine formation assay, Km app method
Sequence (Q57WT9 1-351): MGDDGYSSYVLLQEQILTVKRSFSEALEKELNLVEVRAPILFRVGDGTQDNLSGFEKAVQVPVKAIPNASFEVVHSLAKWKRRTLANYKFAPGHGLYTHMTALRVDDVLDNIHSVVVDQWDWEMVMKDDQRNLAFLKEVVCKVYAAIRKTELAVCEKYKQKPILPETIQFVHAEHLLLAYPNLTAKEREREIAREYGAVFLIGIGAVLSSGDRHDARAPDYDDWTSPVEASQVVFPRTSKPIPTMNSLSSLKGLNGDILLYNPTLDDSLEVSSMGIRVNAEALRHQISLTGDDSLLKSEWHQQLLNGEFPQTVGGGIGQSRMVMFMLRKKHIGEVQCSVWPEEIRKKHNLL
Observable: Ki

{"Compound": "N[C@@H](CSS(=O)(=O)O)C(=O)O [L-cysteine-S-sulfate]", "Observable": "Ki", "Recorded Value": "137 µM"}

* * *

biological target: TbAS-A (Trypanosoma brucei); construct: full ORF in pET28a(+), 6-His-tagged, expressed in E. coli BL21DE3, Ni purified; predicted dimer (homology model); assay: ninhydrin asparagine formation assay
Observable: IC50

{"Compound": "N[C@@H](CSS(=O)(=O)O)C(=O)O [L-cysteine-S-sulfate]", "Observable": "IC50", "Recorded Value": "126 µM"}

* * *

biological target: TcAS-A (Trypanosoma cruzi); construct: full ORF in pET28a(+), 6-His-tagged, expressed in E. coli BL21DE3, Ni purified; predicted dimer (homology model); test: ninhydrin asparagine formation assay

{"Compound": "N[C@@H](CSS(=O)(=O)O)C(=O)O [L-cysteine-S-sulfate]", "IC50 (µM)": 100}

* * *

target: TcAS-A (Trypanosoma cruzi, UniProt Q4CRM4); construct: full ORF in pET28a(+), 6-His-tagged, expressed in E. coli BL21DE3, Ni purified; predicted dimer (homology model); assay: ninhydrin asparagine formation assay, Km app method
Sequence (Q4CRM4 1-348): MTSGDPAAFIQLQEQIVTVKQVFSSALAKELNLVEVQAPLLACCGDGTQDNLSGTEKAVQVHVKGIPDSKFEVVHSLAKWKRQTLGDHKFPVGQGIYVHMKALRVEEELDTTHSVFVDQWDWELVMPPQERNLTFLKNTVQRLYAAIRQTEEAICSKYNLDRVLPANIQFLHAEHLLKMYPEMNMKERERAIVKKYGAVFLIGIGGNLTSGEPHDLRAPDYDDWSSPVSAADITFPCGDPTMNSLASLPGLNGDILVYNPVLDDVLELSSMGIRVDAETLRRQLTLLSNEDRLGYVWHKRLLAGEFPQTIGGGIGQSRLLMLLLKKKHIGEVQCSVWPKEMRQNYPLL

{"Compound": "N[C@@H](CSS(=O)(=O)O)C(=O)O [L-cysteine-S-sulfate]", "Assayed System": "TcAS-A (Trypanosoma cruzi, UniProt Q4CRM4)", "Result Units": "µM", "Ki": 129}
